The reported measurements were obtained from PubChem BioAssay AID624452.

- Test system: human liver microsomes, compound remaining, LC-MS
- assay_remarks: human microsomal compound turnover – biochemical, with and without NADPH, LC-MS, set 2, ADME assay (AID 624452);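 further: compound left measured after 60 min microsomal incubation at 37 °C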
- condition_details: measured here: stability without NADPH control; at 1 µM
Readings of percent remaining without NADPH for the listed molecules
Kindly provide the numeric value in % only, without the unit symbol.

Examples with their reported percent remaining without NADPH follow.
INSERT INTO assay_data (molecule, endpoint_label, units_symbol, reading) VALUES
  ('c1ccc2c(Nc3nnc(-c4ccncc4)s3)cccc2c1', 'percent remaining without NADPH', '%', 72.1),
  ('O=C(COC(=O)C12CC3CC(CC(C3)C1)C2)NCc1ccco1', 'percent remaining without NADPH', '%', 100),
  ('CN(C)C1=C(Cl)C(=O)N(c2ccc(Cl)c(Cl)c2)C1=O', 'percent remaining without NADPH', '%', 36.9),
  ('COc1ccc(N(C(=O)CCl)C(C(=O)NCCc2ccccc2)c2cccs2)cc1Cl (configuration not stated)', 'percent remaining without NADPH', '%', 39.7),
  ('CCCn1ncc(CN2CCCC(C(=O)c3cccc(OC(C)C)c3)C2)c1C (configuration not stated)', 'percent remaining without NADPH', '%', 79.4),
  ('CCN1CCN(c2nc3ccccc3nc2C(C#N)C(=O)OC2CCCCC2)CC1 (configuration not stated)', 'percent remaining without NADPH', '%', 80.8),
  ('O=C(O)CCC(NS(=O)(=O)c1ccc(-c2ccccc2)cc1)C(=O)O (configuration not stated)', 'percent remaining without NADPH', '%', 74.2),
  ('COc1ccc(S(=O)(=O)n2nc(OC(=O)c3ccccc3)cc2N)cc1', 'percent remaining without NADPH', '%', 65.4);

Given Cc1ccc(C)c(OCCn2cc(C(=O)O)c3ccccc32)c1 , state its recorded percent remaining without NADPH.
66.7

Given CC1CCCN(C(C(=O)Nc2ccc3c(c2)OCCO3)c2ccccc2)C1 (configuration not stated) , state its recorded percent remaining without NADPH.
79.7

Given CS(=O)(=O)c1ccc(C(=O)OCC(=O)NC23CC4CC(CC(C4)C2)C3)cc1[N+](=O)[O-] , state its recorded percent remaining without NADPH.
81

Given Oc1cc(O)cc(/C=C/c2ccc(O)c(O)c2)c1 , state its recorded percent remaining without NADPH.
87.6

Given Cc1cccc(-n2cnc3cc(C(=O)N4CCCCC4)ccc32)c1 , state its recorded percent remaining without NADPH.
70

Given Cc1cc(C)n(-c2nc(NCCCO)c3c4c(sc3n2)CCCC4)n1 , state its recorded percent remaining without NADPH.
74

---

Readings of percent remaining with NADPH for the listed compounds
- Tested on: human liver microsomes, compound remaining, LC-MS
- assay_remarks: human microsomal compound turnover – biochemical, with and without NADPH, LC-MS, set 2, ADME assay (AID 624452);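 further: compound left measured after 60 min microsomal incubation at 37 °C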
- condition_details: at 1 µM
Answers without a unit are incomplete; give the number and then its unit.

Examples with their reported percent remaining with NADPH follow.
INSERT INTO assay_data (compound, endpoint_label, reading) VALUES
  ('O=C(O)CCC(NS(=O)(=O)c1ccc(-c2ccccc2)cc1)C(=O)O (stereo not drawn)', 'percent remaining with NADPH', '75.8%'),
  ('O=C(O)c1cccnc1SCCc1ccccc1', 'percent remaining with NADPH', '61.4%'),
  ('COc1ccc(Sc2ccc(NC(=O)c3ccccc3Cl)cc2C#N)cc1', 'percent remaining with NADPH', '27.3%'),
  ('O=c1oc2c(O)c(O)cc3c(=O)oc4c(O)c(O)cc1c4c23', 'percent remaining with NADPH', '73.1%'),
  ('Cc1nc(SCc2nc3ccccc3[nH]2)c2oc3ccccc3c2n1', 'percent remaining with NADPH', '0.22%'),
  ('O=c1[nH]c2c(s1)C(c1cccnc1)C1C3CCC(C3)C1S2 (stereo not drawn)', 'percent remaining with NADPH', '7.76%'),
  ('COc1ccc(CNCc2cccc3ccccc23)cc1', 'percent remaining with NADPH', '0.21%'),
  ('NC(=O)C1CCN(c2nc(-c3ccc(Br)cc3)cs2)CC1', 'percent remaining with NADPH', '56.9%'),
  ('Cc1cc2c(s1)c1cnn(Cc3ccccc3F)c(=O)c1n2C', 'percent remaining with NADPH', '0.06%'),
  ('COc1ccc(C2CC(c3ccccc3)=NN2c2ccc(S(N)(=O)=O)cc2)cc1 (stereo not drawn)', 'percent remaining with NADPH', '59.6%');

Given C/C=C/Cn1c(SCCCc2ccccc2)nc2c1c(=O)[nH]c(=O)n2C , state its recorded percent remaining with NADPH.
1.64%

Given O=C1CCCC2=C1C1(CCCC1)N=C(Nc1nc3ccccc3o1)N2 , state its recorded percent remaining with NADPH.
11.2%

Given CCc1nnc(NC(=O)c2ccc(NS(=O)(=O)c3ccccc3)cc2)s1 , state its recorded percent remaining with NADPH.
69.2%
